Test system: 15 non small cell lung cancer lines representing various EGFR and KRAS mutations
Test: Dose response studies against 15 NSCLC lines (alamar blue)
Assay type: cell-based, human
Conditions: Homo sapiens, read-out: IC50 H23
As shown below, each of these compounds has a reported IC50 value.
metric: IC50

| molecule | metric | result |
| --- | --- | --- |
| Cc1cccc(-n2ncc(Cl)c(Cl)c2=O)c1 | IC50 | 210 nM |
| O=C(Nc1ccc(Cl)cc1)c1ccc([N+](=O)[O-])o1 | IC50 | 600 nM |
| Cc1ccc(NC(=O)c2ccc([N+](=O)[O-])o2)cc1 | IC50 | 910 nM |
| O=c1c(Cl)c(Cl)cnn1-c1ccccc1 | IC50 | 260 nM |

---

Assay: in vitro
Conditions: human
Excerpt: NHBE (normal human bronchiolar epithelial cells) are primary cells obtained from donor lungs and commercially available from Cambrex. The HPLID (human peripheral lung epithelial) cell line has been immortalized with the SV40 large T-antigen. WI-38: human lung fibroblast cell line. HPLID, NHBE and WI-38 cells will serve as controls in the chemical screens. WT: wildtype; WT*: over-expressed wildtype. […]

| compound | endpointUnit | resultComparator | IC50 at 72 h |
| --- | --- | --- | --- |
| CN/N=C1\C=NN(c2ccccc2)C(=O)C1Cl (centres unmarked) [compound 257024] | µM | > | 10 |
| Cc1ccccc1-n1ncc(Cl)c(Cl)c1=O [compound 257017] | µM | = | 7.52 |

---

Tested on: 15 non small cell lung cancer lines representing various EGFR and KRAS mutations
Assay: Dose response studies against 15 NSCLC lines (alamar blue)
Assay type: cell-based, human
Conditions: Homo sapiens, NCI-H1734; H1734 (EGFR WT, KRAS G13C); 12 point doubling dilution 10 uM to 5 nM; alamar blue; read-out: IC50 H1734
pIC50: −log10 of the molar value.
metric: pIC50

| molecule | readoutNumber |
| --- | --- |
| Cc1ccccc1-n1ncc(Cl)c(Cl)c1=O | 5.49 |

---

Test system: 15 non small cell lung cancer lines representing various EGFR and KRAS mutations
Assay: Dose response studies against 15 NSCLC lines (alamar blue)
Assay type: cell-based, human
Conditions: Homo sapiens, NCI-H820; H820 (EGFR T790M/DelE746-A750, KRAS WT); 12 point doubling dilution 10 uM to 5 nM; alamar blue; read-out: IC50 H820
pIC50: −log10 of the molar value.
Entries and their measured pIC50 follow.

| molecule | pIC50 |
| --- | --- |
| Cc1ccccc1-n1ncc(Cl)c(Cl)c1=O | 6.33 |
| O=c1c(Cl)c(Cl)cnn1-c1ccccn1 | 6.39 |

---

Test system: 15 non small cell lung cancer lines representing various EGFR and KRAS mutations
Assay: Dose response studies against 15 NSCLC lines (alamar blue)
Type: cell-based, human
Conditions: Homo sapiens, NCI-H2122; H2122 (EGFR WT, KRAS G12C); 12 point doubling dilution 10 uM to 5 nM; alamar blue; read-out: IC50 H2122
pIC50: −log10 of the molar value.

| compound | pIC50 |
| --- | --- |
| Cc1ccccc1-n1ncc(Cl)c(Cl)c1=O [compound 257017] | 5.67 |

---

Test system: HPL1D
Assay: Sensitivity of cell proliferation to erlotinib
Assay type: cell-based
Settings: Homo sapiens, read-out: IC50 (Erlotinib) HPL1D; EGFR WT, KRAS WT
Text: NHBE (normal human bronchiolar epithelial cells) are primary cells obtained from donor lungs and commercially available from Cambrex. The HPLID (human peripheral lung epithelial) cell line has been immortalized with the SV40 large T-antigen. WI-38: human lung fibroblast cell line. HPLID, NHBE and WI-38 cells will serve as controls in the chemical screens. WT: wildtype; WT*: over-expressed wildtype.

| compound | IC50 (µM) |
| --- | --- |
| C#Cc1cccc(Nc2ncnc3cc(OCCOC)c(OCCOC)cc23)c1 [Erlotinib, erlotinib] | 10 |

---

Assay: in vitro
Settings: human, NHBE CytoTox (uM)

| compound | resultComparator | IC50 at 72 h, µM |
| --- | --- | --- |
| Cc1cccc(-n2ncc(Cl)c(Cl)c2=O)c1 | = | 3.4 |
| CN/N=C1\C=NN(c2ccccc2)C(=O)C1Cl (stereo not drawn) | > | 10 |
| Cc1ccccc1-n1ncc(Cl)c(Cl)c1=O | = | 5.17 |

---

System: 15 non small cell lung cancer lines representing various EGFR and KRAS mutations
Assay: Dose response studies against 15 NSCLC lines (alamar blue)
Type: cell-based, human
Details: Homo sapiens, read-out: IC50 H1118
metric: IC50 (µM)

| molecule | system | readoutNumber |
| --- | --- | --- |
| Cc1ccc(NC(=O)c2ccc([N+](=O)[O-])o2)cc1 [compound 98697] | 15 non small cell lung cancer lines representing various EGFR and KRAS mutations | 0.56 |
| Cc1cccc(-n2ncc(Cl)c(Cl)c2=O)c1 [compound 104122] | 15 non small cell lung cancer lines representing various EGFR and KRAS mutations | 0.34 |
| O=C(Nc1ccc(Cl)cc1)c1ccc([N+](=O)[O-])o1 [compound 98698] | 15 non small cell lung cancer lines representing various EGFR and KRAS mutations | 0.53 |
| O=c1c(Cl)c(Cl)cnn1-c1ccccc1 [compound 257014] | 15 non small cell lung cancer lines representing various EGFR and KRAS mutations | 0.45 |

---

System: H3255
Test: Non Small Cell Lung Cancer Proliferation Assay (Alamar Blue)
Assay type: cell-based, human
Conditions: Homo sapiens, NCI-H3255, dose response 10 μM to 5 nM
Experimental: These cells have a doubling time of 1-2 days. All cell types are adherent and grow in colonies. The cells should be kept at a density between 50,000 cells/mL-500,000 cells/mL to provide for optimum growth and adequate nutrition. […] After drug treatment, cytotoxicity is measured by Alamar Blue reduction. […] The final step in the assay is to measure the amount of Alamar Blue reduction. […] The Alamar Blue fluorescence is measured at an excitation of 530 nm and emission of 590 nm. […]
Measured IC50 of individual entries
metric: IC50 (nM)

| compound | endpointUnit | resultComparator | readoutNumber |
| --- | --- | --- | --- |
| CN/N=C1\C=NN(c2ccccc2)C(=O)C1Cl (centres unmarked) | nM | > | 10000 |
| Cc1ccccc1-n1ncc(Cl)c(Cl)c1=O | nM | = | 2950 |
